# METHOD SUMMARY: In-vitro Plasma Kallikrein Inhibition: Enzymatic reactions were conducted in ⿿assay buffer⿿, comprising 50 mM Hepes/NaOH at pH 7.8, 150 mM NaCl, 1 mM EDTA and 0.05% (w/v) CHAPS. For the determination of IC50 values, the assays were performed at room temperature in 384-well plates with a total assay volume of 25.25 ul per well. The test compound was dissolved in 90% (v/v) DMSO/water. For the assays, 250 nL of the 90% (v/v) DMSO/water solution or compound solution were added per well, followed by the addition of 12.5 ul protease solution (protease in assay buffer). The final assay concentration of the human plasma kallikrein was nominally 25 pM, the 11 compound concentrations in the dilution series were in the range form 1 nM to 100 uM. After 1 hour of pre-incubation at room temperature, the reactions were started by the addition of 12.5 ul substrate solution (in assay buffer, final assay concentration was 0.5 uM). After the addition of the substrate solution, the final DMSO concentration in the assay was 0.9% (v/v).
RECORDED ENDPOINT: IC50 (nM)
Hi! Could you send only the number? It should be in nM, unit omitted.

Data request: So what's the measured IC50 for this one? Cc1nc(N)cc(OCC(=O)C(C)(C)C)c1CNC(=O)c1cn(Cc2ccccc2)nn1
Data returned: 24
